This collection of values is drawn from patent US20190062453A1.

Overview of recorded Relative active concentration as compared to the initial state for various binders
target: T1, human DR5 (recombinant, fusion format not stated for the assay) (human, UniProt O14763 56-207); assay: binding to human DR5 after stress test, pH 6.0, 2 weeks 40° C., against non-stressed initial material (defined 100%)
T1 construct: all antigen constructs carry ECD aa 56-207; also called hu DR5; huDR5

DR5TAA-0075 (antibody, human IgG1, kappa, L234A L235A, V domains shown, humanized variant of DR5TAA-0011; also called VH7/VL11) VH: EVQLVETGGGLIQPGGSLRLSCAASGFTVSRYAMIWVRQAPGKGLEYIGFITSDGSTYYADSAKGRFTISRDNSKNTLYLQMNSLRAEDTAVYYCARYTYSDGTDLWGRGTLVTVSS VL: DIQMTQSPSSLSASVGDRVTITCQASQSISTYLSWYQQKPGQPPKRLIYKASTLASGVPSRFSGSGSGTDFTLTISSLQPEDFATYYCQPNSGIATYGAAFGGGTKVEIKR	102%

Please examine the following record next.
Consider the binder shown here: DR5TAA-0068 (antibody, human IgG1, kappa, L234A L235A, V domains shown, humanized variant of DR5TAA-0011; also called VH17/VL10) VH: QVQLVESGGGLVQPGGSLRLSCSASGFSISRYAMIWVRQAPGKGLEYVGFITSDSSAYYASWAKGRFTISRDNSKNTLYLQMNSLRAEDTAVYYCARYTYSDGTDLWGQGTLVTVSS VL: DIQMTQSPSSLSASVGDRVTITCRASQSISTYLSWYQQKPGQPPKRLIYKASTLASGVPSRFSGSGSGTDFTLTISSLQPEDFATYYCQPNSGIATYGAAFGGGTKVEIKR What is its recorded Relative active concentration as compared to the initial state?
103%
